Molecular target: recombinant rat PAI-1 (Rattus norvegicus, UniProt P20961)
Sequence (P20961 24-402): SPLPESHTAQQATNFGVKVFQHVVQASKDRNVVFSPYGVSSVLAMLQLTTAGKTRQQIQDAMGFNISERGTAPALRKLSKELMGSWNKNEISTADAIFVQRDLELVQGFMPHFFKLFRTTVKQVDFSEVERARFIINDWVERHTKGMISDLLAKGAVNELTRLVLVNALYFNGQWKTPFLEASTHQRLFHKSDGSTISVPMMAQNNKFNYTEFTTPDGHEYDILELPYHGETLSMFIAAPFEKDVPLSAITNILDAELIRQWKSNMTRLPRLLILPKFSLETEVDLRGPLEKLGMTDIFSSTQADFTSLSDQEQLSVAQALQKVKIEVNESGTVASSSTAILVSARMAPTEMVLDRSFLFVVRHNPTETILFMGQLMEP
Experiment: Test Example 3: rat PAI-1 inhibitory activity (tPA fluorogenic substrate assay, pH7.4 HEPES buffer)
Settings: pH7.4 HEPES buffer; obtained from Table 7 results
Readout type: pIC50
Units for pIC50: none; it is -log10 of a concentration expressed in mol/L.

-- ask Bench note: what pIC50 did CCC(CC)Oc1ccc(-c2ccc(OC(F)(F)F)cc2)cc1N(Cc1ccc(C(C)(C)C)cc1)C(=O)C(=O)O show?
-- reply 5.93

-- ask Bench note: what pIC50 did CCC(CC)Oc1ccc(N(Cc2ccc(C(C)(C)C)cc2)C(=O)C(=O)O)cc1-c1ccc(OC(F)(F)F)cc1 show?
-- reply 5.85

-- ask Bench note: what pIC50 did CCCCOc1ccc(N(Cc2ccc(C(C)(C)C)cc2)C(=O)C(=O)O)cc1-c1ccc(OC(F)(F)F)cc1 show?
-- reply 5.74

-- ask Bench note: what pIC50 did CCCCCOc1ccc(-c2ccc(OC(F)(F)F)cc2)cc1N(Cc1ccc(C(C)(C)C)cc1)C(=O)C(=O)O show?
-- reply 5.94

-- ask Bench note: what pIC50 did CCCCc1ccc(CN(C(=O)C(=O)O)c2ccc(-c3ccc(C(C)(C)C)cc3)cc2)cc1 show?
-- reply 5.86

-- ask Bench note: what pIC50 did CCCOc1ccc(N(Cc2ccc(C(C)(C)C)cc2)C(=O)C(=O)O)c(-c2ccc(OC(F)(F)F)cc2)c1 show?
-- reply 5.74

-- ask Bench note: what pIC50 did CCN(CC)c1ccc(N(Cc2ccc(C(C)(C)C)cc2)C(=O)C(=O)O)c(-c2ccc(OC(F)(F)F)cc2)c1 show?
-- reply 5.72

-- ask Bench note: what pIC50 did CCCOc1ccc(-c2ccc(OC(F)(F)F)cc2)cc1N(Cc1ccc(C(C)(C)C)cc1)C(=O)C(=O)O show?
-- reply 5.75

-- ask Bench note: what pIC50 did CCCOc1ccc(N(Cc2ccc(C(C)(C)C)cc2)C(=O)C(=O)O)cc1-c1ccc(OC(F)(F)F)cc1 show?
-- reply 5.76

-- ask Bench note: what pIC50 did CCCCOc1ccc(-c2ccc(OC(F)(F)F)cc2)cc1N(Cc1ccc(C(C)(C)C)cc1)C(=O)C(=O)O show?
-- reply 5.89

-- ask Bench note: what pIC50 did CC(C)(C)c1ccc(CN(C(=O)C(=O)O)c2ccc(Cl)cc2-c2ccc(OC(F)(F)F)cc2)cc1 show?
-- reply 5.67

-- ask Bench note: what pIC50 did CC(C)(C)c1ccc(CN(C(=O)C(=O)O)c2cc(C(F)(F)F)ccc2-c2ccc(OC(F)(F)F)cc2)cc1 show?
-- reply 5.61

-- ask Bench note: what pIC50 did CC(C)(C)c1ccc(CN(C(=O)C(=O)O)c2ccc(Cl)c(-c3ccc(OC(F)(F)F)cc3)c2)cc1 show?
-- reply 5.81

-- ask Bench note: what pIC50 did CC(C)(C)c1ccc(CN(C(=O)C(=O)O)c2cccc(-c3ccc(OC(F)(F)F)cc3)c2)cc1 show?
-- reply 5.56

-- ask Bench note: what pIC50 did COc1cc(OC)c(N(Cc2ccc(C(C)(C)C)cc2)C(=O)C(=O)O)cc1-c1ccc(OC(F)(F)F)cc1 show?
-- reply 5.64

---

target: recombinant human PAI-1 (Homo sapiens); construct: purchased Molecular Innovations, Inc; assay: Test Example 2: human PAI-1 inhibitory activity (tPA fluorogenic substrate assay, pH7.4 HEPES buffer); assay type: biochemical; conditions: pH7.4 HEPES buffer; obtained from Table 5 results
Sequence (P05121 24-402): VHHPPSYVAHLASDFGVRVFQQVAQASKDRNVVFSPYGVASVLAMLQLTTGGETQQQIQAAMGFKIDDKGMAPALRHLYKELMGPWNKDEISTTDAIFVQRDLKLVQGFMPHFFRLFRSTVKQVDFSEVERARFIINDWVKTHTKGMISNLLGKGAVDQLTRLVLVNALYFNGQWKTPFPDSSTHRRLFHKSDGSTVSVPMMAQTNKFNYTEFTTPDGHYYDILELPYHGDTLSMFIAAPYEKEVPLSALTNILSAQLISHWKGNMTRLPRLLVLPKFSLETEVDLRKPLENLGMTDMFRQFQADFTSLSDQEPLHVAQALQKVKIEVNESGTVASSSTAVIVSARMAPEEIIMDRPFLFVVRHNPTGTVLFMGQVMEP
Readout type: IC50 (nM)
Kindly provide the numeric value in nM only, without the unit symbol.

-- ask Bench note: what IC50 did CC(C)(C)c1ccc(CN(C(=O)C(=O)O)c2ccc(Oc3ccc(OC(F)(F)F)cc3)cc2C(F)(F)F)cc1 [compound 54] show?
-- reply 1320

-- ask Bench note: what IC50 did CC(C)(C)c1ccc(CN(C(=O)C(=O)O)c2ccc(Cl)cc2-c2ccc(OC(F)(F)F)cc2)cc1 [compound 72] show?
-- reply 1060

-- ask Bench note: what IC50 did CCCOc1ccc(-c2ccc(OC(F)(F)F)cc2)cc1N(Cc1ccc(C(C)(C)C)cc1)C(=O)C(=O)O [compound 68] show?
-- reply 1180
